- Test system: Escherichia coli TOP10
- procedureDetails: shrunken log2 fold change of peptide-encoding DNA abundance (4.5 h post-induction vs induction); higher = less antimicrobial activity (less host growth inhibition)
- conditionDetails: time post-induction: 4.5 h; library: site-saturation at positions 5, 18, 19, 20
endpointName: shrunken log2 fold change

{"columns": ["seq", "assayTarget", "endpointName", "measuredResult"],
 "data": [
  ["RRIRFRPPRLPRPRPRPCAIPRP", "Escherichia coli TOP10", "shrunken log2 fold change", -0.0259],
  ["RRIRDRPPRLPRPRPRPDAIPRP", "Escherichia coli TOP10", "shrunken log2 fold change", 0.903],
  ["RRIRNRPPRLPRPRPRPDSDPRP", "Escherichia coli TOP10", "shrunken log2 fold change", -0.00992],
  ["RRIRPRPPRLPRPRPRPPHEPRP", "Escherichia coli TOP10", "shrunken log2 fold change", -0.0736],
  ["RRIRWRPPRLPRPRPRPAGGPRP", "Escherichia coli TOP10", "shrunken log2 fold change", 0.379],
  ["RRIRIRPPRLPRPRPRPFTLPRP", "Escherichia coli TOP10", "shrunken log2 fold change", 0.0488],
  ["RRIRNRPPRLPRPRPRPFWWPRP", "Escherichia coli TOP10", "shrunken log2 fold change", -0.0225],
  ["RRIRGRPPRLPRPRPRPGCEPRP", "Escherichia coli TOP10", "shrunken log2 fold change", 2.03],
  ["RRIRCRPPRLPRPRPRPYKVPRP", "Escherichia coli TOP10", "shrunken log2 fold change", -1.05],
  ["RRIRPRPPRLPRPRPRPSGIPRP", "Escherichia coli TOP10", "shrunken log2 fold change", -0.126],
  ["RRIRQRPPRLPRPRPRPLICPRP", "Escherichia coli TOP10", "shrunken log2 fold change", -0.0973],
  ["RRIRQRPPRLPRPRPRPSEWPRP", "Escherichia coli TOP10", "shrunken log2 fold change", -0.0519],
  ["RRIRTRPPRLPRPRPRPAEMPRP", "Escherichia coli TOP10", "shrunken log2 fold change", -0.253],
  ["RRIRWRPPRLPRPRPRPEDQPRP", "Escherichia coli TOP10", "shrunken log2 fold change", 0.475],
  ["RRIRIRPPRLPRPRPRPGAWPRP", "Escherichia coli TOP10", "shrunken log2 fold change", 0.215]
]}

###

- Test system: Escherichia coli TOP10
- procedureDetails: shrunken log2 fold change of peptide-encoding DNA abundance (4.5 h post-induction vs induction); higher = less antimicrobial activity (less host growth inhibition)
- conditionDetails: time post-induction: 4.5 h; library: site-saturation at positions 5, 18, 19, 20
Label label 1 when shrunken log2 fold change >= -0.06; otherwise label 0.

{"columns": ["seq", "classAssignment"],
 "data": [
  ["RRIRWRPPRLPRPRPRPDPIPRP", "label 0"],
  ["RRIRERPPRLPRPRPRPELHPRP", "label 1"],
  ["RRIRHRPPRLPRPRPRPQTEPRP", "label 0"],
  ["RRIRTRPPRLPRPRPRPAKSPRP", "label 1"],
  ["RRIRSRPPRLPRPRPRPWKYPRP", "label 1"],
  ["RRIRNRPPRLPRPRPRPYNRPRP", "label 1"],
  ["RRIRKRPPRLPRPRPRPSCLPRP", "label 0"],
  ["RRIRHRPPRLPRPRPRPFIFPRP", "label 0"]
]}

###

- System: Escherichia coli TOP10
- procedureDetails: shrunken log2 fold change of peptide-encoding DNA abundance (4.5 h post-induction vs induction); higher = less antimicrobial activity (less host growth inhibition)
- conditionDetails: time post-induction: 4.5 h; library: site-saturation at positions 5, 18, 19, 20
Listed sequences paired with reported shrunken log2 fold change
endpointName: shrunken log2 fold change

{"columns": ["seq", "measuredResult"],
 "data": [
  ["RRIRDRPPRLPRPRPRPCKIPRP", -0.0385],
  ["RRIRNRPPRLPRPRPRPLATPRP", 0.292],
  ["RRIRHRPPRLPRPRPRPGWCPRP", 0.399],
  ["RRIRKRPPRLPRPRPRPHMLPRP", -0.105],
  ["RRIRYRPPRLPRPRPRPFMFPRP", -0.861],
  ["RRIRGRPPRLPRPRPRPWKQPRP", 0.152],
  ["RRIRERPPRLPRPRPRPGIWPRP", 0.139],
  ["RRIRERPPRLPRPRPRPQARPRP", -0.0863]
]}

###

- System: Escherichia coli TOP10
- procedureDetails: shrunken log2 fold change of peptide-encoding DNA abundance (4.5 h post-induction vs induction); higher = less antimicrobial activity (less host growth inhibition)
- conditionDetails: time post-induction: 4.5 h; library: site-saturation at positions 5, 18, 19, 20
endpointName: shrunken log2 fold change

{"columns": ["seq", "assayTarget", "measuredResult"],
 "data": [
  ["RRIRFRPPRLPRPRPRPRTQPRP", "Escherichia coli TOP10", 1.93],
  ["RRIRLRPPRLPRPRPRPNESPRP", "Escherichia coli TOP10", -0.00771],
  ["RRIRLRPPRLPRPRPRPVKNPRP", "Escherichia coli TOP10", -0.176],
  ["RRIRNRPPRLPRPRPRPRSFPRP", "Escherichia coli TOP10", 0.0523],
  ["RRIRIRPPRLPRPRPRPSWLPRP", "Escherichia coli TOP10", -0.373],
  ["RRIRQRPPRLPRPRPRPYKIPRP", "Escherichia coli TOP10", -0.568],
  ["RRIRHRPPRLPRPRPRPMLNPRP", "Escherichia coli TOP10", -0.114],
  ["RRIRERPPRLPRPRPRPFIIPRP", "Escherichia coli TOP10", -0.769]
]}

###

Catalogue of sequences with associated shrunken log2 fold change
- Tested on: Escherichia coli TOP10;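 note: peptides expressed intracellularly from a pBAD plasmid library in pooled LB shake-flask culture, induced with 0.3% L-arabinose, DNA abundance read by NGS, three biological replicates, DESeq2 with apeglm shrinkage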
- procedureDetails: shrunken log2 fold change of peptide-encoding DNA abundance (4.5 h post-induction vs induction); higher = less antimicrobial activity (less host growth inhibition)
- conditionDetails: time post-induction: 4.5 h; library: site-saturation at positions 5, 18, 19, 20
endpointName: shrunken log2 fold change

{"columns": ["seq", "endpointName", "measuredResult"],
 "data": [
  ["RRIRWRPPRLPRPRPRPWGVPRP", "shrunken log2 fold change", 0.132],
  ["RRIRCRPPRLPRPRPRPNLCPRP", "shrunken log2 fold change", -0.427],
  ["RRIRTRPPRLPRPRPRPNGYPRP", "shrunken log2 fold change", -0.12],
  ["RRIRWRPPRLPRPRPRPQNNPRP", "shrunken log2 fold change", -0.622],
  ["RRIRMRPPRLPRPRPRPINPPRP", "shrunken log2 fold change", -0.0782],
  ["RRIRSRPPRLPRPRPRPNKCPRP", "shrunken log2 fold change", -0.42],
  ["RRIRKRPPRLPRPRPRPLINPRP", "shrunken log2 fold change", -0.149],
  ["RRIRVRPPRLPRPRPRPPVDPRP", "shrunken log2 fold change", 0.0819],
  ["RRIRQRPPRLPRPRPRPIFYPRP", "shrunken log2 fold change", -0.418],
  ["RRIRTRPPRLPRPRPRPWSMPRP", "shrunken log2 fold change", -0.36],
  ["RRIRQRPPRLPRPRPRPCQGPRP", "shrunken log2 fold change", -0.0332],
  ["RRIRERPPRLPRPRPRPFKRPRP", "shrunken log2 fold change", 0.0596],
  ["RRIRCRPPRLPRPRPRPKALPRP", "shrunken log2 fold change", 0.0255],
  ["RRIRKRPPRLPRPRPRPYFPPRP", "shrunken log2 fold change", -0.348],
  ["RRIRTRPPRLPRPRPRPEFPPRP", "shrunken log2 fold change", 0.0504],
  ["RRIRWRPPRLPRPRPRPSDMPRP", "shrunken log2 fold change", -0.354],
  ["RRIRGRPPRLPRPRPRPIIYPRP", "shrunken log2 fold change", 0.0582],
  ["RRIRARPPRLPRPRPRPCSAPRP", "shrunken log2 fold change", 0.356],
  ["RRIRKRPPRLPRPRPRPRAKPRP", "shrunken log2 fold change", 0.173],
  ["RRIRSRPPRLPRPRPRPMMPPRP", "shrunken log2 fold change", -0.0787],
  ["RRIRSRPPRLPRPRPRPPDDPRP", "shrunken log2 fold change", 0.488],
  ["RRIRWRPPRLPRPRPRPWFNPRP", "shrunken log2 fold change", -0.248],
  ["RRIRHRPPRLPRPRPRPLHQPRP", "shrunken log2 fold change", -0.00684],
  ["RRIRARPPRLPRPRPRPQLCPRP", "shrunken log2 fold change", 0.249],
  ["RRIRMRPPRLPRPRPRPNCAPRP", "shrunken log2 fold change", 0.317],
  ["RRIRCRPPRLPRPRPRPMKPPRP", "shrunken log2 fold change", 0.0236],
  ["RRIRYRPPRLPRPRPRPSRQPRP", "shrunken log2 fold change", -0.114],
  ["RRIRKRPPRLPRPRPRPVLTPRP", "shrunken log2 fold change", 0.342],
  ["RRIRDRPPRLPRPRPRPDFGPRP", "shrunken log2 fold change", -0.0319],
  ["RRIRVRPPRLPRPRPRPDWKPRP", "shrunken log2 fold change", -0.0682],
  ["RRIRVRPPRLPRPRPRPQGHPRP", "shrunken log2 fold change", -0.177],
  ["RRIRMRPPRLPRPRPRPSFYPRP", "shrunken log2 fold change", -0.29]
]}
